assay: Half life in rat plasma by HPLC analysis
property: half-life (min)
Lab book: enter the figure in min, no units written.

Query :: Return value of half-life for input COc1cccc(-c2ccc(COC3CN(C#N)C3)cc2)c1 , no commentary.
Result :: 189

----------
Below, each of the compounds is paired with its reported inhibition value.
biological target: Monoglyceride lipase (Homo sapiens) (UniProt Q99685); test: Inhibition of recombinant human hexaHis-tagged MGL expressed in Escherichia coli BL21 (DE3) at 1 uM using fluorogenic AHMMCE as substrate preincubated for 1 hr followed by substrate addition by fluorimetric assay relative to control
Sequence (Q99685 whole entry): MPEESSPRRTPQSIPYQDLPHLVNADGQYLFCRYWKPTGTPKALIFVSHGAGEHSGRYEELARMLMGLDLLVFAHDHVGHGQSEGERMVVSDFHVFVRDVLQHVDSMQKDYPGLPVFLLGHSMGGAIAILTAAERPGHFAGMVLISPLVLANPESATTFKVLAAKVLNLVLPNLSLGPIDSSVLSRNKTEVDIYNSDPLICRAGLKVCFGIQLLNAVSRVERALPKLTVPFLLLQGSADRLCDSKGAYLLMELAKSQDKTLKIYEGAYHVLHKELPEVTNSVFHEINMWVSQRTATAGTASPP
Supply the numeric figure in %, leaving out any unit text.

Some compounds with recorded inhibition:
> print(dat)
                            chemical.string    property  reported.measurement
1  COc1cccc(-c2ccc(C(=O)NC3(C)CN(C#N)C3)cc2)c1  inhibition                    11
2  N#CN1CC(OCc2ccc(-c3ccc4c(c3)OCCO4)cc2)(c2ccccc2)C1  inhibition                  13.5
3  COc1cccc(-c2ccc(S(=O)(=O)NC3(C)CN(C#N)C3)cc2)c1  inhibition                    19
4  COc1cccc(-c2ccc(C(=O)N3CCC34CN(C#N)C4)cc2)c1  inhibition                     4
5  COc1cccc(-c2ccc(COC3(c4ccccc4)CN(C#N)C3)cc2)c1  inhibition                  19.5

Query :: Tell me its inhibition on Monoglyceride lipase (Homo sapiens) (UniProt Q99685): COc1cccc(-c2ccc(S(=O)(=O)N3CCC34CN(C#N)C4)cc2)c1
Result :: 14

Query :: Supply inhibition measured with Monoglyceride lipase (Homo sapiens) (UniProt Q99685) for N#CN1CC(OCc2ccc(-c3ccc4c(c3)OCO4)cc2)(c2ccccc2)C1 .
Result :: 59

----------
target: Fatty-acid amide hydrolase 1 (Homo sapiens); assay: Inhibition of recombinant human FAAH expressed in Escherichia coli at 1 uM using fluorogenic AAMCA as substrate by fluorimetric assay relative to control
Entries and their inhibition
Response body: numeric value in %, unit text excluded.

Query :: Identify the reported inhibition for the following entry. COc1cccc(-c2ccc(C(=O)N3CCC34CN(C#N)C4)cc2)c1
Result :: 6

Query :: Recall and state the measured inhibition for COc1cccc(-c2ccc(C(=O)NC3(C)CN(C#N)C3)cc2)c1 .
Result :: 23

Query :: Please list inhibition recorded for the compound N#CN1CC(OCc2ccc(-c3ccc4c(c3)OCO4)cc2)(c2ccccc2)C1
Result :: 99

Query :: Give the measured inhibition for N#CN1CC(OCc2ccc(-c3ccc4c(c3)OCCO4)cc2)(c2ccccc2)C1
Result :: 99

----------
# Ratio IC50 values compiled below
organism: Homo sapiens; test: Selectivity index, ratio of IC50 for human hexaHis-tagged MGL expressed in Escherichia coli BL21 (DE3) using fluorogenic AHMMCE as substrate preincubated for 1 hr followed by substrate addition by fluorimetric assay to IC50 human NAAA using fluorogenic PAMCA and N-4-methylcoumarin as substrate incubated for 90 mins by fluorescence based assay

Solved entries (count: 3):
> print(dat)
                            chemical.string    property  reported.measurement
1  COc1cccc(-c2ccc(C(=O)N3CCC34CN(C#N)C4)cc2)c1  Ratio IC50                 > 100
2  COc1cccc(-c2ccc(S(=O)(=O)NC3(C)CN(C#N)C3)cc2)c1  Ratio IC50                 > 100
3   COc1cccc(-c2ccc(COC3(C)CN(C#N)C3)cc2)c1  Ratio IC50                   500

// next item, Ratio IC50 requested
Query :: Tell us which Ratio IC50 value is on record for COc1cccc(-c2ccc(S(=O)(=O)N3CCC34CN(C#N)C4)cc2)c1
Result :: > 100

----------
experiment: Half life in rat liver microsomes at 1 uM in presence of NADPH by LC-MS/MS; details: liver microsomes
property: half-life at 1 µM (min)
Please state the figure in min; there is no need to write the unit.

Query :: For the compound N#CN1CC(OCc2ccc(-c3ccc(C(F)(F)F)cc3)cc2)C1 , give its measured half-life at 1 µM value.
Result :: 8.9

----------
Molecular target: N-acylethanolamine-hydrolyzing acid amidase (Homo sapiens, UniProt Q02083)
Sequence (Q02083 whole entry): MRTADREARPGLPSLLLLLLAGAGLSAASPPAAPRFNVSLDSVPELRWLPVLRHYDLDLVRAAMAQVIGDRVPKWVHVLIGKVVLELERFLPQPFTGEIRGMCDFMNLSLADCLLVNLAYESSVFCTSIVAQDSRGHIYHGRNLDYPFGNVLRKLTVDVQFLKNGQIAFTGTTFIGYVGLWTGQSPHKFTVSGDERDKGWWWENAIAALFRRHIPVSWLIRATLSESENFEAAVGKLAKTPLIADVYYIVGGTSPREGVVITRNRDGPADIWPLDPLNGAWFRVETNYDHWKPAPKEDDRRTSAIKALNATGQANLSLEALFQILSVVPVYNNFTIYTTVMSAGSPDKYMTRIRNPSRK
Assay: Inhibition of activated human NAAA using fluorogenic PAMCA and N-4-methylcoumarin as substrate incubated for 90 mins by fluorescence based assay
Simple rule here: IC50 less than 6 nM is TRUE, otherwise FALSE.

> print(dat)
                                   molecule  category
1  COc1ccc(-c2ccc(COC3(C4CC4)CN(C#N)C3)c(F)c2)cc1F      TRUE

Query :: Strictly below 6 nM in IC50? N#CN1CC(OCc2ccc(-c3ccc(C(F)(F)F)cc3)cc2)C1
Result :: TRUE

Query :: Please state whether IC50 is below 6 nM for COc1ccc(-c2ccc(COC3CN(C#N)C3)cc2)cc1
Result :: TRUE

Query :: Problem: For the molecule N#CN1CC(COCc2ccc(-c3ccccc3)cc2)C1 , is IC50 under 6 nM?
Result :: TRUE

Query :: Is it true that IC50 reported for COc1cccc(-c2ccc(C(=O)NC3(C)CN(C#N)C3)cc2)c1 is less than 6 nM?
Result :: TRUE

----------
biological target: N-acylethanolamine-hydrolyzing acid amidase (Homo sapiens) (UniProt Q02083); assay: Irreversible inhibition of activated human NAAA assessed as ratio of Kinact/Ki using fluorogenic PAMCA and N-4-methylcoumarin as substrate
Decide using Ratio: a value greater than or equal to 3 ×10⁶ /M/s is Condition met, a smaller one is Condition not met.

> print(dat)
                            chemical.string           category
1       N#CN1CC(OCc2ccc(-c3ccc(F)cc3)cc2)C1  Condition not met
2  COc1cccc(-c2ccc(COC3CN(C#N)C3)c(C(F)(F)F)c2)c1  Condition not met
3      COc1ccc(-c2ccc(COC3CN(C#N)C3)cc2)cc1      Condition met
4    COc1cccc(-c2ccc(COC3CN(C#N)C3)cc2)c1OC      Condition met
5  N#CN1CC(OCc2ccc(-c3ccc(C(F)(F)F)cc3)cc2)C1  Condition not met

Query :: hey, is Ratio for this one >= 3 ×10⁶ /M/s? N#CN1CC(OCc2ccc(Oc3ccccc3)cc2)C1
Result :: Condition not met

Query :: Test whether the compound Cc1ccc(-c2ccc(COC3CN(C#N)C3)cc2)cc1 records Ratio of 3 ×10⁶ /M/s or higher.
Result :: Condition not met

----------
Target: Fatty-acid amide hydrolase 1 (Homo sapiens)
Sequence (O00519 whole entry): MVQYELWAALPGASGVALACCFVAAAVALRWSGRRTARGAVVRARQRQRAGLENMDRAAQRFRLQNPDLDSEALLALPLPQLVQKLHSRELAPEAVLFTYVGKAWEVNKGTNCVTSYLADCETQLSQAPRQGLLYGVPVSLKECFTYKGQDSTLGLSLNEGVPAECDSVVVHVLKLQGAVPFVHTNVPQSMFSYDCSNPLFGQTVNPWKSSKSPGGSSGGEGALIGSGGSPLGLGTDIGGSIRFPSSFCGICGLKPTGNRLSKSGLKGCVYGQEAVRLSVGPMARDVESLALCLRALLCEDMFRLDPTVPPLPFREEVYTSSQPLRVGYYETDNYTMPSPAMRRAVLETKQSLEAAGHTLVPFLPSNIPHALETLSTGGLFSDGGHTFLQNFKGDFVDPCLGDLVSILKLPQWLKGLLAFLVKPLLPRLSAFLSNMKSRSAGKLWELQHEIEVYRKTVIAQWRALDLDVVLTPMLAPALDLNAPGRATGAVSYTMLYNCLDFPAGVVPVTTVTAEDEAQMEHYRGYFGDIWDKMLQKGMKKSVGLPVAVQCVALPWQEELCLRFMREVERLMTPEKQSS
Assay: Inhibition of recombinant human FAAH expressed in Escherichia coli using fluorogenic AAMCA as substrate by fluorimetric assay
property: IC50 (nM)
State just the number; it will be interpreted in nM.

Here's what some known entries look like.
> print(dat)
                            chemical.string  property  reading.unit  reported.measurement
1  COc1ccc(-c2ccc(COC3(c4cccnc4)CN(C#N)C3)c(F)c2)cc1F      IC50            nM                     2
2   COc1cccc(-c2ccc(COC3(C)CN(C#N)C3)cc2)c1      IC50            nM                  0.36
3  COc1cccc(-c2ccc(S(=O)(=O)N3CCC34CN(C#N)C4)cc2)c1      IC50            nM                  10.2
4  COc1ccc(-c2ccc(COC3(C4CC4)CN(C#N)C3)c(F)c2)cc1F      IC50            nM                     1
5  COc1cccc(-c2ccc(COC3(c4ccccc4)CN(C#N)C3)cc2)c1      IC50            nM                    61

Query :: Write down IC50 measured for item COc1cccc(-c2ccc(S(=O)(=O)NC3(C)CN(C#N)C3)cc2)c1
Result :: 17.8
